test system: HOP-62 NSCLC; assay: NCI tumour cell line growth inhibition, 48 h; in the data active = GI50 below about 0.43 µM; inactive = the rest
Response enum: True (active), False (inactive)

-- ask Identify the outcome logged in this assay for the molecule shown: CCN(CC)CCOc1ccc(C2=C(c3ccccc3)CCc3cc(OC)ccc32)cc1
-- reply False

-- ask Identify the outcome logged in this assay for the molecule shown: COc1ccc(N(Cc2cc(OC)c(OC)c(OC)c2)C2OC(=O)c3ccccc32)cc1 (centres undefined)
-- reply False

-- ask Identify the outcome logged in this assay for the molecule shown: COc1ccc(S(=O)(=O)NCCNc2nccc(-c3c(-c4ccccc4)nc4sccn34)n2)cc1
-- reply False

-- ask Identify the outcome logged in this assay for the molecule shown: CCCCCCCCCCCCNC(=O)[C@H]1CSC(c2ccc(OC)c(F)c2)N1 (some centres undefined)
-- reply True

-- ask Identify the outcome logged in this assay for the molecule shown: CN(C)c1ccc(Sc2ccc3nc(N)nc(N)c3c2)cc1
-- reply False

-- ask Identify the outcome logged in this assay for the molecule shown: Cn1c(COC(=O)NCCN2CCOCC2)nc2c(N3CCOCC3)nc(-c3ccccc3)nc21
-- reply False

-- ask Identify the outcome logged in this assay for the molecule shown: COc1cc(/C=C\c2cccnc2Nc2ccccc2)cc(OC)c1OC
-- reply False

-- ask Identify the outcome logged in this assay for the molecule shown: N#Cc1ccc(N2Cc3cc(Cl)ccc3OC3=C2C(=O)N(Cc2ccccc2)C3=O)cc1
-- reply False

-- ask Identify the outcome logged in this assay for the molecule shown: COC(=O)C1=C(O)C(C(=O)OC)[C@@]2(O)[C@@H](C(=O)OC)C(c3ccc(OC(=O)C(CC(C)C)NC(C)=O)cc3)C[C@@H]1[C@@H]2C(=O)OC (some centres undefined)
-- reply False

Data origin: PubChem BioAssay (NCI)
